# Test system: mouse macrophage cell line (RAW 264.7)
# RUN PARAMETERS: RAW 264.7, 48 h, MTT
METRIC: % Toxicity at 25 μg mL^−1 (%)

{"STRUCTURE SMILES STRING": "CC(C)c1ccc(C=CC(=O)c2ccc(-n3cccc3)cc2)cc1", "METRIC": "% Toxicity at 25 μg mL^−1", "UNIT NAME": "%", "ENDPOINT VALUE": 30.1}
{"STRUCTURE SMILES STRING": "COc1cccc(-c2cc(-c3ccc(-n4cccc4)cc3)nc(N)n2)c1O", "METRIC": "% Toxicity at 25 μg mL^−1", "UNIT NAME": "%", "ENDPOINT VALUE": 19.10}
{"STRUCTURE SMILES STRING": "Nc1nc(-c2ccc(-n3cccc3)cc2)cc(-c2ccc(Cl)cc2Cl)n1", "METRIC": "% Toxicity at 25 μg mL^−1", "UNIT NAME": "%", "ENDPOINT VALUE": 26.80}
{"STRUCTURE SMILES STRING": "CC(C)c1ccc(-c2cc(-c3ccc(-n4cccc4)cc3)nc(N)n2)cc1", "METRIC": "% Toxicity at 25 μg mL^−1", "UNIT NAME": "%", "ENDPOINT VALUE": 28.90}
{"STRUCTURE SMILES STRING": "O=C(C=Cc1cccs1)c1ccc(-n2cccc2)cc1", "METRIC": "% Toxicity at 25 μg mL^−1", "UNIT NAME": "%", "ENDPOINT VALUE": 26.6}
{"STRUCTURE SMILES STRING": "COc1ccc(-c2cc(-c3ccc(-n4cccc4)cc3)nc(N)n2)cc1", "METRIC": "% Toxicity at 25 μg mL^−1", "UNIT NAME": "%", "ENDPOINT VALUE": 19.09}
{"STRUCTURE SMILES STRING": "COc1ccc(-c2cc(-c3ccc(-n4cccc4)cc3)nc(N)n2)c(OC)c1", "METRIC": "% Toxicity at 25 μg mL^−1", "UNIT NAME": "%", "ENDPOINT VALUE": 25.80}
